Listing of entries alongside the reported Kd.
Molecular target: T1, extracellular domain of hIL-13Rα1 cleaved from hIL-13Rα1:hFc chimeric protein (human, UniProt P78552 22-343)
T1 construct: extracellular domain; also called Cleaved hIL-13Rα1 molecules (MW 40 kDa)
T1 sequence (looked up): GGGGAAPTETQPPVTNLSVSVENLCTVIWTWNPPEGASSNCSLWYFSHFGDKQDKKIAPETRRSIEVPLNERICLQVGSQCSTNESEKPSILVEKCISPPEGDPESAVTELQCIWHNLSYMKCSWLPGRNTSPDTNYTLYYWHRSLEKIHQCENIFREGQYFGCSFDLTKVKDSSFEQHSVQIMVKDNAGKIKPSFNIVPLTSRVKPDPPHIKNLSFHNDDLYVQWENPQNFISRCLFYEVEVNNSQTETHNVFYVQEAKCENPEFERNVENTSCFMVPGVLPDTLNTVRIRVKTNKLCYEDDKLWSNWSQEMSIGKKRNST
Test: SPR Biacore 3000, C1 chip, HuMab captured by anti-hFcγ, cleaved hIL-13Rα1 as analyte, 1:1 Langmuir model
Provide the reading as a plain figure in nM.

Known results for binders:
LC5002-005, mutant L234A; L235A (antibody, V domains shown, Recombinant IgG1 variant; also called IgG1 ala-ala LC5002-005; recombinant variant IgG1-Ala-Ala) VH: EVQVLDSGGGLVQPGGSLRLSCTASGFTFRLYTMSWVRQTPGRGLEWVSGISGSGLSTYFADSVKGRFTISRDNSKNTVYLQMNSLRAEDTAVYYCAKEGDWIYFDSWGQGTLVIVSS VL: DIQMTQSPSSLSASVGDRVTITCRASQGISSWLAWYQQKPEKAPKSLIYAASSLQSGVPSRFSGSGSGTDFTLTISSLQPEDFATYYCQQYNSHPPTFGQGTKLEIKR; 0.21
HuMab LC5002-005 (antibody, V domains shown, Only the variable domains are tied to this antibody; also called hu-MAB<h-IL-13Ralpha>LC.5002-005 (DSM ACC2711)) VH: EVQVLDSGGGLVQPGGSLRLSCTASGFTFRLYTMSWVRQTPGRGLEWVSGISGSGLSTYFADSVKGRFTISRDNSKNTVYLQMNSLRAEDTAVYYCAKEGDWIYFDSWGQGTLVIVSS VL: DIQMTQSPSSLSASVGDRVTITCRASQGISSWLAWYQQKPEKAPKSLIYAASSLQSGVPSRFSGSGSGTDFTLTISSLQPEDFATYYCQQYNSHPPTFGQGTKLEIK; 0.22
HuMab LC5002-003 (antibody, V domains shown, Human IgG1 kappa from a HuMab mouse hybridoma; Only the variable domains are tied to this antibody; also called LC50002-003; hu-MAB<h-IL-13Ralpha>LC.5002-003 (DSM ACC2710)) VH: EVQLLESGGDLIQPGGSLRLSCAASGFTFNIYAMNWVRQAPGKGLEWVSVISGRGITTYYADSVKGRFTISRDNSKNTLYLQMDSLRAEDTAVYYCAKGSSYWTDFDYWGQGTLVTVSS VL: DIQMTQSPSSLSASVGDRVTITCRASQGISSWLAWYQQKPEKAPKSLIYAASSLQSGVPSRFSGSGSGTDFTLTISSLQPEDFATYYCQQYNSYPWTFGQGTKVEIK; 0.39
HuMab LC5002-007 (antibody, human IgG1, V domains shown, Human IgG1 kappa from a HuMab mouse hybridoma; Only the variable domains are tied to this antibody; also called hu-MAB<h-IL-13R alpha>LC.5002-007 (DSM ACC2712)) VH: QVQLVQSGAEVKKPGSSVKVSCKVSGGTFSSYAFSWVRQAPGQGLEWMGRIIPILGRTNYAQKFQGRVTITADKSTSTAYMEVSSLRSEDTAVYYCAREGETLDYFYYGMDVWGQGTTVTVSS VL: EIVLTQSPGTLSLSPGERATLSCRASQSVSSSYLAWYQQKPGQAPRLLIYGASSRAIGIPDRFSGSGSGTDFTLTISRLEPEDFAVYYCQHYGSSLTFGGGTKVEIK; 4.4

Here is the next item to consider.
# input Item HuMab LC5002-002 (antibody, human IgG1, V domains shown, Human IgG1 kappa from a HuMab mouse hybridoma; Only the variable domains are tied to this antibody; also called hu-MAB<h-IL-13R alpha>LC.5002-002 (DSM ACC2709)) VH: EVQLLESGGGLVQPGGSLRLSCAASGFTFNIYAMNWVRQAPGKGLEWVSVISGRGITTYYADSVKGRFTISRDNSKNTLYLQMNSLRADDTAVYYCAKGSSSWTDFDYWGQGTLVTVSS VL: DIQMTQSPSSLSASVGDRVTITCRASQGISRWVAWYQQKPEKAPKSLIYAASSLQSGVPSRFSGSGSGTDFTLTISSLQPEDFATYYCQQYNSYPWTFGQGTKVEIK has what recorded Kd?
# output 0.62

Ref: patent US20110086026A1
